Molecular target: T1, Macaca fascicularis IL2Rγ extracellular domain expressed with a C-terminal myc-myc-hexahistidine tag (Macaca fascicularis)
T1 construct: also called mfIL-2Rg-MMH; mfIL-2RG-MMH
T1 chain: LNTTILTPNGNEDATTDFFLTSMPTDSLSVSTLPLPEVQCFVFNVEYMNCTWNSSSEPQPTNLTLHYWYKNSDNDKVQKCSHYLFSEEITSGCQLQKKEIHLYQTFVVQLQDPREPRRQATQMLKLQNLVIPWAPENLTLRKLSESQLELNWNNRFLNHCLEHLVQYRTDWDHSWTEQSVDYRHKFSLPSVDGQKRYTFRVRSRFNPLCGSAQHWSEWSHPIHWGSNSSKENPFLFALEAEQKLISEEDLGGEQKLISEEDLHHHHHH
Assay: SPR Biacore 4000, mAb captured by anti-hFc, HBS-ET, 25C
READOUT TYPE: 100 nM Ag Bound (RU)
Answers are plain numbers, in RU.

Example entries and their recorded answers appear below.
BINDER: H4H12886P (antibody, human IgG4 S228P, kappa, V domains shown, anti-IL2Rγ monoclonal antibody expressed with human IgG4 Fc) VH: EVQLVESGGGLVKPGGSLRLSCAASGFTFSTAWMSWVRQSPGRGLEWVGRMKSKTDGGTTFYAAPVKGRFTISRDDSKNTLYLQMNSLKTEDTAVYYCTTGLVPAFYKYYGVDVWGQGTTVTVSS VL: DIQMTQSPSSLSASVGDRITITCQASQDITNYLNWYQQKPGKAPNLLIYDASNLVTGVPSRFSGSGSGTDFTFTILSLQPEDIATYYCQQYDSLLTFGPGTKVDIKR
100 nM Ag Bound (RU): 57

BINDER: H4H12900P (antibody, human IgG4 S228P, kappa, V domains shown, anti-IL2Rγ monoclonal antibody expressed with human IgG4 Fc) VH: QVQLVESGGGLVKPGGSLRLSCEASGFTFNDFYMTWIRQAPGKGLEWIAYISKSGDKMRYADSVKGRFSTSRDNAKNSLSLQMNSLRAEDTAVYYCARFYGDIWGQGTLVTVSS VL: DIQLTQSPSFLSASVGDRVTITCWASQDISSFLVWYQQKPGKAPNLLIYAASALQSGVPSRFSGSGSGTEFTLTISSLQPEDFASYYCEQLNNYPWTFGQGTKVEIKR
100 nM Ag Bound (RU): 71

BINDER: H4H12884P (antibody, human IgG4 S228P, kappa, V domains shown, anti-IL2Rγ monoclonal antibody expressed with human IgG4 Fc) VH: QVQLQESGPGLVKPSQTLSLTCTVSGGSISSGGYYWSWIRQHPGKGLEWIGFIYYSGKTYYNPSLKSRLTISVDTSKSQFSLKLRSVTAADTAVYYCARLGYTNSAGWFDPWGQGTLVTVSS VL: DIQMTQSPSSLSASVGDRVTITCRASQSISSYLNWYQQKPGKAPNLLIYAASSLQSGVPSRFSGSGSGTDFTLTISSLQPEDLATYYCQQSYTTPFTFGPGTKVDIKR
100 nM Ag Bound (RU): 82

Now take the following binder into account.
stdin: Give the reported 100 nM Ag Bound for this binder. H4H13541P (antibody, human IgG4 S228P, kappa, V domains shown, anti-IL2Rγ monoclonal antibody expressed with human IgG4 Fc) VH: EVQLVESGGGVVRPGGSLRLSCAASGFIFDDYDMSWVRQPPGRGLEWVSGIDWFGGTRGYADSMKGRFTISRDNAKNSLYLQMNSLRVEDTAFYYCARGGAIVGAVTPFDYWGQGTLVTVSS VL: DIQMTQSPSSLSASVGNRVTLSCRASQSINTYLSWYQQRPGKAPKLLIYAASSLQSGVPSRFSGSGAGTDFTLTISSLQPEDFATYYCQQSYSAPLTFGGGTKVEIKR
stdout: 82
